target: human endothelin A receptor (Homo sapiens); construct: expressed in transfected cells; host or cells: CHO-K1 (G-418 selected); experiment: In vitro ETA binding, attached cell assay, [125I]-ET-1 competition; settings: Table 2; 99.2% pure atropisomers of Example 2; Run 5; read-out: IC50 (nM) Run 5
Sequence (P25101 21-427): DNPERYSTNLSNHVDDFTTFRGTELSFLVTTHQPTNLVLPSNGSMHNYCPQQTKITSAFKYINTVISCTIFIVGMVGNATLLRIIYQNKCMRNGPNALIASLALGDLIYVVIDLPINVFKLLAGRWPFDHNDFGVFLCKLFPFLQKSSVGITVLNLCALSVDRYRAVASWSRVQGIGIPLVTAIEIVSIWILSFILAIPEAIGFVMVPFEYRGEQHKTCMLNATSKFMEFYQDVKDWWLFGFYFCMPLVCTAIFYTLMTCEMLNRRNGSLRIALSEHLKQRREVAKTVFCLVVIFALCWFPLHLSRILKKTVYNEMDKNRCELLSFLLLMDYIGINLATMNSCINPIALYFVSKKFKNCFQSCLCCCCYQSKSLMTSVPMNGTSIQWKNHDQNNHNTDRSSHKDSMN
Property measured: IC50

[
  {
    "Compound": "Cc1onc(NS(=O)(=O)c2ccccc2-c2ccc(-c3ncco3)cc2CN(C)C(=O)CC(C)(C)C)c1C (single isomer, unassigned) [97% pure (−) levorotatory]",
    "System name": "human endothelin A receptor (Homo sapiens)",
    "IC50": "7 nM"
  }
]

Switching to the query record.
Request the reported IC50 associated with Cc1onc(NS(=O)(=O)c2ccccc2-c2ccc(-c3ncco3)cc2CN(C)C(=O)CC(C)(C)C)c1C (single isomer, unassigned) [97% pure (+) dextrorotatory]
0.3 nM

* * *

experiment: In vitro interconversion (racemization) of enantiomeric atropisomers under pseudo-physiological conditions, chiral HPLC
Property measured: half-life (h)
Numbers only, in h.

Request the reported half-life associated with Cc1onc(NS(=O)(=O)c2ccccc2-c2ccc(-c3ncco3)cc2CN(C)C(=O)CC(C)(C)C)c1C (racemic) [Racemate]
15.8

Origin of measurements: patent US20030040534A1
